Below, each of the compounds is paired with its reported Th-T fluorescence of Aβ42 (sheet Fig. 7a), mean of three wells value.
# test-target: Aβ42 (Homo sapiens, UniProt P05067)
# Sequence (P05067 672-713): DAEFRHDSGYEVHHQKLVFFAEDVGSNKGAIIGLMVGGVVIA
# protocol-details: Th-T (thioflavin-T) assay of Aβ42 aggregation
# Assay type: biochemical
# reported-conditions: head suffix _50 (concentration 50); reading M78

compound: C=C1CCC2C(C)(CCC=C(C)C)C(O)CCC2(C)C1Cc1c(OC)oc(CO)c(C(=O)OC)c1=O (centres unmarked) [Compound 13]
test-target: Aβ42 (Homo sapiens, UniProt P05067)
reading: 0.4716

compound: C=C1CCC2C(C)(CCC=C(C)C)C(O)CCC2(C)C1Cc1c(OC)oc(C)c(C(=O)OC)c1=O (centres unmarked) [Compound 14]
test-target: Aβ42 (Homo sapiens, UniProt P05067)
reading: 2.476

compound: C=C1CC[C@@H]2[C@](C)(CC[C@H]3O[C@H](C=C(C)C)C[C@@]23C)[C@@H]1Cc1c(OC)oc(CO)c(C)c1=O [Compound 20]
test-target: Aβ42 (Homo sapiens, UniProt P05067)
reading: 2.117

compound: C=C1CC[C@@H]2[C@](C)(CC[C@H]3O[C@H](C=C(C)C)C[C@@]23C)[C@@H]1Cc1c(OC)oc(CO)c(C(=O)OC)c1=O [Compound 21]
test-target: Aβ42 (Homo sapiens, UniProt P05067)
reading: 0.3119

Here is another compound to look at.
Exam item: Dear colleague, please send me the reported Th-T fluorescence of Aβ42 (sheet Fig. 7a), mean of three wells for C=C1CCC2C(C)(CCC=C(C)C)C(O)CCC2(C)C1Cc1c(OC)oc(CO)c(C)c1=O (centres unmarked) [Compound 12] when you can.
Marked response: 1.437

###

# test-target: Aβ42 (Homo sapiens, UniProt P05067)
# protocol-details: Th-T (thioflavin-T) assay of Aβ42 aggregation
# Format: biochemical
# reported-conditions: reading M111; compound at 20 (head suffix _20)
Let's look at some molecules and their measured Th-T fluorescence, mean of three wells (Fig. 7a).

Exam item: For the molecule C=C1CCC2C(C)(CCC=C(C)C)C(O)CCC2(C)C1Cc1c(OC)oc(C)c(C(=O)OC)c1=O (centres unmarked) , give its measured Th-T fluorescence, mean of three wells (Fig. 7a) value.
Marked response: 1.674

Exam item: Provide Th-T fluorescence, mean of three wells (Fig. 7a) value for the following molecule: C=C1CC[C@@H]2[C@](C)(CC[C@H]3O[C@H](C=C(C)C)C[C@@]23C)[C@@H]1Cc1c(OC)oc(CO)c(C(=O)OC)c1=O
Marked response: 0.9311

Exam item: // Input: C=C1CC[C@@H]2[C@](C)(CC[C@H]3O[C@H](C=C(C)C)C[C@@]23C)[C@@H]1Cc1c(OC)oc(CO)c(C)c1=O . Output its Th-T fluorescence, mean of three wells (Fig. 7a) only.
Marked response: 3.22

Exam item: Retrieve Th-T fluorescence, mean of three wells (Fig. 7a) measured for C=C1CCC2C(C)(CCC=C(C)C)C(O)CCC2(C)C1Cc1c(OC)oc(CO)c(C(=O)OC)c1=O (centres unmarked) and print it.
Marked response: 1.041

Exam item: Consider the molecule C=C1CCC2C(C)(CCC=C(C)C)C(O)CCC2(C)C1Cc1c(OC)oc(CO)c(C)c1=O (centres unmarked) . State its measured Th-T fluorescence, mean of three wells (Fig. 7a).
Marked response: 2.0886
